test system: PIK4CB; construct: gene PI4KB; details: concentration: 1 μM, replicates: in singlicate; n = 1;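 also: KINOMEscan kinase panel screen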
%Inh for assorted molecules
test-readout: %Inh (%)

>>> meas_value("CSc1nn2c(=O)cc(N3CCOCC3)nc2n1Cc1cccc(Cl)c1Cl [GSK2347225]")
0
>>> meas_value("c1ccc(-c2ccc3c(-c4ccnc(Nc5ccc6c(c5)OCCO6)n4)cnn3n2)cc1 [GW818941]")
0
>>> meas_value("Cn1ccc2ncnc(Oc3ccc(NC(=O)Nc4cccnc4)c(Cl)c3)c21")
0
>>> meas_value("COc1ccc(Nc2nccc(N3CCC(NC(=O)Nc4ccc5c(c4)OCO5)C3)n2)cc1 (stereo not drawn) [GSK1379745]")
14
>>> meas_value("Cc1cc(N2CCC(NS(=O)(=O)c3ccc(F)cc3)CC2)nc(Nc2cccc(C#N)c2)n1.O=C(O)C(F)(F)F [GSK1653537]")
10
>>> meas_value("C[C@H]1CC[C@@H](C(=O)Nc2ccccc2)CN1c1cc(-c2ccc3c(N)n[nH]c3c2)nc(N)n1 [GSK2283293]")
0
>>> meas_value("CN1CCC(n2cnc(-c3ccc(F)cc3)c2-c2ccnc(NC3CCNCC3)n2)CC1 [SB-229482]")
31
>>> meas_value("OCCOCCn1ccc2ncnc(Nc3ccc(Oc4cccc(Cl)c4)c(Cl)c3)c21")
0
>>> meas_value("CS(=O)(=O)CCNCc1nc(-c2ccc3ncnc(Nc4ccc(OCc5cccc(F)c5)c(Cl)c4)c3c2)cs1.Cl [GW583340]")
26
>>> meas_value("C[C@@H]1CCN(C(=O)CO)C[C@@H]1N(C)c1ncnc2[nH]ccc12")
0
>>> meas_value("CCCc1ccc(S(=O)(=O)NC2CCN(c3ccnc(Nc4ccc(OC)cc4)n3)C2)cc1 (stereo not drawn) [GSK1379737]")
0
>>> meas_value("COc1ccc(NC(=O)Nc2ccc(C)c(-c3ccc(C(=O)Nc4ccncc4)cc3)c2)cc1 [GSK1398475]")
0
>>> meas_value("Nc1nc(-c2ccc3c(N)n[nH]c3c2)cc(N2CCC[C@@H](C(=O)Nc3ccccc3)C2)n1.O=C(O)C(F)(F)F.O=C(O)C(F)(F)F [GSK2288359]")
6
>>> meas_value("Clc1cccc(-c2nc(Nc3ccncc3)c3ccccc3n2)c1 [GW873004]")
0
>>> meas_value("CCC(CC)(CC)n1cnc2c(N)ncnc21 [SKF-97620]")
40

---

# %Inh annotations
tested on: TXK; conditions: concentration: 1 μM, replicates: in singlicate; n = 1
test-readout: %Inh (%)

>>> meas_value("COc1ccc(-c2nc3n(c2-c2ccncc2)CCC3)cc1 [SKF-104493]")
0
>>> meas_value("O=C(Nc1n[nH]c2nc(-c3ccco3)c(Br)cc12)c1ccc(CN2CCCC2)cc1.O=C(O)[C@H](O)[C@@H](O)C(=O)O [SB-742352]")
2
>>> meas_value("Cn1ccc2ncnc(Oc3ccc(NC(=O)Nc4cccnc4)c(Cl)c3)c21")
0
>>> meas_value("COc1cc2c(Nc3cccc(NC(=O)c4ccccc4)c3)ncnc2cc1OCCCN1CCOCC1 [GSK223810]")
0
>>> meas_value("Cc1cc(N2CCC(NS(=O)(=O)c3ccc(F)cc3)CC2)nc(Nc2cccc(C#N)c2)n1.O=C(O)C(F)(F)F [GSK1653537]")
0
>>> meas_value("Clc1cccc(-c2nc(Nc3ccncc3)c3ccccc3n2)c1 [GW873004]")
1
>>> meas_value("Cc1ccc(O)cc1Nc1cc(C(F)(F)F)nc2ccc(-c3ccncc3)cc12 [GW630823]")
10
>>> meas_value("Nc1n[nH]c2nnc(-c3ccccc3)cc12 [SB-517389]")
25
>>> meas_value("O=c1cc(N2CCOCC2)nc2n(Cc3cccc(Cl)c3)ccn12 [GSK2296823]")
18
>>> meas_value("CNc1nccc(-c2c(-c3ccc(F)cc3)ncn2CCCN2CCOCC2)n1 [SB-222516]")
9
>>> meas_value("CNc1nccc(-c2c(-c3ccc(F)cc3)ncn2C2CCN(C)CC2)n1 [SB-222903]")
0
>>> meas_value("Clc1ccc(-c2cc(-c3c[nH]nc3-c3ccccn3)ccn2)cc1 [GW681251]")
0
>>> meas_value("Cl.O=S(=O)(c1cccc(F)c1)c1ccc(Nc2ncnc3cc(Br)sc23)cc1Cl [GSK306886]")
15
>>> meas_value("CCn1c(-c2ccncc2)nc2cnccc21 [SB-735216]")
21
>>> meas_value("Nc1nc(-c2ccc3c(N)n[nH]c3c2)cc(N2CCCCC2)n1 [GSK2228768]")
0
>>> meas_value("Fc1ccc(-c2ncn(CCCNCc3ccccc3)c2-c2ccncc2)cc1")
0
>>> meas_value("CS(=O)(=O)CCNCc1nc(-c2ccc3ncnc(Nc4ccc(OCc5cccc(F)c5)c(Cl)c4)c3c2)cs1.Cl [GW583340]")
94.7
>>> meas_value("Cl.Cl.c1ccc(-c2cc3ccncc3cc2OC2CCNCC2)cc1 [GSK1122999]")
4
>>> meas_value("COc1ccc(NC(=O)Nc2ccc(C)c(-c3ccc(C(=O)Nc4ccncc4)cc3)c2)cc1 [GSK1398475]")
0
>>> meas_value("COC(=O)c1c(-c2ccccc2)c2cc(Cl)ccc2c(=O)n1Cc1ccc(S(C)(=O)=O)cc1")
0
>>> meas_value("Cl.Cn1ccc(-c2cccc(Nc3ccnc4cc(-c5nccs5)ccc34)c2)n1 [GW525701]")
14
>>> meas_value("Fc1cccc(COc2ccc(Nc3ncnc4sc(-c5ccc[nH]5)cc34)cc2Cl)c1 [GW707818]")
5
>>> meas_value("Nc1nc(-c2ccccn2)c(-c2ccnc3ccccc23)s1 [GW548057]")
0
>>> meas_value("COc1cc2ncnc(Nc3ccc(OCc4ccccc4Br)c(Cl)c3)c2cc1OC.Cl [GI261590]")
12
